I'd appreciate it if you could supply IC50 values for the items below.
- STUDY SYSTEM: KRAS Q61H (Homo sapiens, UniProt P01116+P62937, Q61H)
- Sequence (P01116 1-169 isoform P01116-2 Q61H limits assumed): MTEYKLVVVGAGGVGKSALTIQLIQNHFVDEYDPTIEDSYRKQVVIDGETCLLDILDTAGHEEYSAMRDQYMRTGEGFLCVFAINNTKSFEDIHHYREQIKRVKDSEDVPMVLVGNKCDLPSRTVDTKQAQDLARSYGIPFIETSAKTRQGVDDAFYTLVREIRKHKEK
- Sequence (P62937 whole entry): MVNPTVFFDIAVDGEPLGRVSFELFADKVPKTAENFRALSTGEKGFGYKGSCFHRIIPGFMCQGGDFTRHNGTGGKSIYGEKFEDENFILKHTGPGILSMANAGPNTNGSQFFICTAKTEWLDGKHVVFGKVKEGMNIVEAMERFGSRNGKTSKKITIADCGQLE
- EXPERIMENT NOTES: Ras-Raf disruption / FRET / MOA assay (BRAF RBD)
- Format: biochemical
- CONDITION NOTES: KRAS Q61H; read-out: KRAS Q61H FRET data IC50

Some compounds with known IC50 results, for comparison:
CCn1c(-c2cccnc2[C@H](C)OC)c2c3cc(ccc31)-c1cc(O)cc(c1)C[C@H](NC(=O)[C@H](C(C)C)N(C)C(=O)[C@H]1CCCN(C(=O)[C@@H]3CN3)C1)C(=O)N1CCC[C@H](N1)C(=O)OCC(C)(C)C2 | 100 to 1000 nM
CCn1c(-c2cccnc2[C@H](C)OC)c2c3cc(ccc31)-c1csc(n1)C[C@H](NC(=O)[C@H](C(C)C)N(C)C(=O)N1CCN(C(=O)[C@H]3CN3)[C@H](C)C1)C(=O)N1CCC[C@H](N1)C(=O)OCC(C)(C)C2 | 10 to 100 nM
CCn1c(-c2cccnc2[C@H](C)OC)c2c3cc(ccc31)-c1cc(O)cc(c1)C[C@H](NC(=O)[C@H](C(C)C)N(C)C(=O)CN(C)S(=O)(=O)[C@@H]1CN1C)C(=O)N1CCC[C@H](N1)C(=O)OCC(C)(C)C2 (single isomer, unassigned) | 10 to 100 nM
CCn1c(-c2cccnc2[C@H](C)OC)c2c3cc(ccc31)-c1cc(O)cc(c1)C[C@H](NC(=O)[C@H](C(C)C)N(C)C(=O)[C@H]1CCCCN(C(=O)[C@H]3CN3)C1)C(=O)N1CCC[C@H](N1)C(=O)OCC(C)(C)C2 (atropisomer, axis not shown) | 100 to 1000 nM
CCn1c(-c2cccnc2[C@H](C)OC)c2c3cc(ccc31)-c1cc(O)cc(c1)C[C@H](NC(=O)[C@H](C(C)C)N(C)C(=O)C1CN(S(=O)(=O)[C@H]3CN3C)C1)C(=O)N1CCC[C@H](N1)C(=O)OCC(C)(C)C2 (single isomer, unassigned) | 10 to 100 nM

Batch request: IC50 for each of the following compounds.
1. CCn1c(-c2cccnc2[C@H](C)OC)c2c3cc(ccc31)-c1cc(O)cc(c1)C[C@H](NC(=O)[C@H](C(C)C)N(C)C(=O)[C@H]1CCN(C(=O)[C@H]3CN3)[C@H]1C)C(=O)N1CCC[C@H](N1)C(=O)OCC(C)(C)C2 (atropisomer, axis not shown)
2. CCn1c(-c2cccnc2[C@H](C)OC)c2c3cc(ccc31)-c1csc(n1)C[C@H](NC(=O)[C@H](C(C)C)N(C)C(=O)N1CC[C@@H](N(C)C(=O)[C@H]3CN3)C1)C(=O)N1CCC[C@H](N1)C(=O)OCC(C)(C)C2 (atropisomer, axis not shown)
3. CCn1c(-c2cccnc2[C@H](C)OC)c2c3cc(ccc31)-c1csc(n1)C[C@H](NC(=O)[C@H](C(C)C)N(C)C(=O)N1CC(N(C)C(=O)[C@@H]3CN3)C1)C(=O)N1CCC[C@H](N1)C(=O)OCC(C)(C)C2 (atropisomer, axis not shown)

1. 100 to 1000 nM
2. 100 to 1000 nM
3. 100 to 1000 nM

====

- STUDY SYSTEM: NRAS G12C (Homo sapiens, UniProt P01111+P62937, G12C)
- Sequence (P01111 whole entry G12C): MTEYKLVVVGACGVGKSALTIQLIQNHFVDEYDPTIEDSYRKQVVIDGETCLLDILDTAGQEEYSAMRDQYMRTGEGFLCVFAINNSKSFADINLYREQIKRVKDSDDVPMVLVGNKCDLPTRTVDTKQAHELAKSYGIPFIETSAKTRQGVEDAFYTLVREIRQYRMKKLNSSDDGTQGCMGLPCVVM
- Sequence (P62937 whole entry): as the sequence (P62937 whole entry) above
- EXPERIMENT NOTES: Disruption of BRAF RBD interaction with Ras (FRET / MOA assay, with Cyclophilin A)
- Type: biochemical
- CONDITION NOTES: NRAS G12C; read-out: NRAS G12C FRET data IC50
pIC50: −log10 of the molar value.
PROPERTY MEASURED: pIC50

CCn1c(-c2cccnc2[C@H](C)OC)c2c3cc(ccc31)-c1cc(O)cc(c1)C[C@H](NC(=O)[C@H](C(C)C)N(C)C(=O)[C@H]1CCN(C(=O)[C@@]3(C)CCCN3)C1)C(=O)N1CCC[C@H](N1)C(=O)OCC(C)(C)C2 | 7.00 to 8.00

GET /values?readout=pIC50&system=NRAS G12C (Homo sapiens, UniProt P01111+P62937, G12C)&item= CCn1c(-c2cccnc2[C@H](C)OC)c2c3cc(ccc31)-c1csc(n1)C[C@H](NC(=O)[C@H](C(C)C)N(C)C(=O)N1[C@H](C)CN(C)C[C@H]1C)C(=O)N1CCC[C@H](N1)C(=O)OCC(C)(C)C2 6.00 to 7.00

Reference source: patent US20230233569A1
